This collection of values is drawn from patent US20190382504A1.

MFI overview
Molecular target: T1, ESO157 homolog 4 peptide (…)/HLA-A*02:01 on T2 cells (human)
T1 construct: also called ESO157 H4
Test: FACS, phage on T2 cells, 50 ug/ml peptide;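 further: binding of phage clones to peptide/MHC complexes detected by flow cytometry after staining with an anti-M13 antibody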

Please review the entries below; each comes with its answer.
binder	MFI
phage clone 35-14, affinity maturation variant of clone #35 (scFv, V domains shown) VH: QVQLVQSGAEVKKPGSSVKVSCKASGDTFSSYYISWVRQAPGQGLEWMGRIIPILGIANYAQKYQGRVTLSADKSTSTSYMELNSLRSEDTAVYYCAREWSYSIDYWGQGTLVTVSS VL: QSVVTQPPSVSAAPGQKVTISCSGSSSNIGNNYVSWYQQLPGTAPELLIYDNNKRPSGIPDRFSGSKSGTSATLGITGLQTGDEADYYCGTWDSSLSAWVFGGGTKLTVL	19.5
phage clone 35-3, affinity maturation variant of clone #35 (scFv, V domains shown) VH: QVQLVQSGAEVKKPGSSVKVSCKASGDTFSSYYISWVRQAPGQGLEWMGRIIPILGIANYAQKYQGRVTLSADKSTSTSYMELNSLRSEDTAVYYCAREWSYSIDYWGQGTLVTVSS VL: QSVVTQPPSVSAAPGQKVTISCSGSSSNIGNNYVSWYQQLPGTAPKLLIYDNNKRPSGIPDRFSGSKSGTSATLGITGLRTGDEADYYCGTWDSSLSAWVFGGGTKLTVLG	19

Which MFI value belongs to phage clone 35-19, affinity maturation variant of clone #35 (scFv, V domains shown, also called variant 35-19) VH: QEQLVQSGAEVKKPGSSVKVSCKASGDTFSSYYISWVRQAPGQGLEWMGRIIPILGIANYAQKYQGRVTLSADKSTSTSYMELNSLRSEDTAVYYCARDWSYSIDYWGQGTLVTVSS VL: QSVVTQPPSVSAAPGQKVTISCSGSISNIGNNYVSWYQQLPGTAPKLLIYDNNMRPSGIPDRFSGSKSGTSATLGITGLQTGDEADYYCGTWDSSLSAWVFGGGTKLTVLG ?
21.6

Which MFI value belongs to phage clone 35-2, affinity maturation variant of clone #35 (scFv, V domains shown) VH: QVQLVQSGAEVKKPGSSVKVSCKASGDTFSSYYISWVRQAPGQGLEWMGRIIPILGIANYAQKYQGRVTLSADKSTSTSYMELNSLRSEDTAVYYCARDWSYSIDYWGQGTLVTVSS VL: QSVVTQPPSVSAAPGQKVTISCSGSSSNIGNNYVSWYQQLPGTAPKLLIYDNNERPSGIPDRFSGSKSGTSATLGITGLQTGDEADYYCGTWDSSLSAWVFGGGTKLTVLG ?
21

Which MFI value belongs to phage clone 35-20, affinity maturation variant of clone #35 (scFv, V domains shown) VH: QVHLVQSGAEVKKPGSSVKVSCKASGDTFSSYYISWVRQAPGQGLEWMGRIIPILGIANYAQKYQGRVTLSADKSTSTSYMELNSLRSEDTAVYYCARDWSYSIDYWGQGTLVTVSS VL: QSVVTQPPSVSAAPGQKVTISCSGSSSNIGNNYVSWYQQLPGTAPKLLIYDNNKRPSGIPDRFSGSKSGTSATLGITGLQTGDEADYYCGTWDSSLSAWVFGGGTKLTVL ?
20.6
